The reported measurements were obtained from patent US20150299801A1.

Target: NT5C2 WT (Homo sapiens, UniProt P49902)
Construct: Full length cDNA constructs encoding wild type NT5C2, NT5C2 K359Q, NT5C2 R367Q and NT5C2 D407A were cloned; His6 (N)
Experiment: 5'-nucleotidase activity as a function of ATP concentration, wild type
Conditions: read-out: A0.5, ATP concentration to achieve an activity equal to half Vmax
pEC50: −log10 of the molar value.
MEASURED_PROPERTY: pEC50

| COMPOUND_STRUCTURE_STRING | OBSERVED_RESULT |
| --- | --- |
| Nc1ncnc2c1ncn2[C@@H]1O[C@H](COP(=O)(O)OP(=O)(O)OP(=O)(O)O)[C@@H](O)[C@H]1O | 1.71 |
